measurement_notes: Plasma pharmacokinetics studies on rats
recorded_conditions: rats; iv dosing 1 mg/kg
quantity_measured: Cl (iv) (mL/min/kg)
Your answer should be a plain number; it is taken to be in mL/min/kg.

* Cc1ccc(N(CCO)C(=O)Nc2ccc(-c3ncnc4[nH]cc(C)c34)cc2)cc1 [Compound 18k] | 2.7
* Cc1c[nH]c2ncnc(-c3ccc(NC(=O)N(CCN)c4ccc(Cl)cc4)cc3)c12 [Compound 18p] | 55.9
* Cc1c[nH]c2ncnc(-c3ccc(NC(=O)N(CCO)c4ccccc4Cl)cc3)c12 [Compound 18f] | 7.7
* Cc1c[nH]c2ncnc(-c3ccc(NC(=O)Nc4cccc(C(=O)NC(C)C)c4)cc3)c12 | 9.0
* COc1ccc(N(CCN)C(=O)Nc2ccc(-c3ncnc4[nH]cc(C)c34)cc2)cc1 [Compound 18o] | 36.0

Exercise: Query: Cl (iv); subject: Cc1c[nH]c2ncnc(-c3ccc(NC(=O)Nc4cccc(C(=O)NC(C)C)c4)c(F)c3)c12
Key: 7.1

---

Microsomal Stability t1/2 (min) Human for assorted molecules
measurement_notes: Microsomal stability, human liver microsomes
Type: in vitro ADME
Give a bare numeral; the unit min is implied.

Previously resolved entries follow.
* Cc1c[nH]c2ncnc(-c3ccc(NC(=O)N(CCO)c4ccccc4)cc3)c12 [Compound 18b] | 87
* Cc1ccc(N(CCO)C(=O)Nc2ccc(-c3ncnc4[nH]cc(C)c34)cc2)cc1 [Compound 18k] | 56

// below: Microsomal Stability t1/2 (min) Human requested for another molecule
Exercise: Param item = Cc1[nH]c2ncnc(-c3ccc(NC(=O)N(CCO)c4ccc(Cl)cc4)c(F)c3)c2c1C [Compound 18s] ; retrieve measured Microsomal Stability t1/2 (min) Human.
Key: 99

---

Recorded AUC (iv) values for a group of compounds are listed next.
measurement_notes: Plasma pharmacokinetics studies on rats
recorded_conditions: rats; iv dosing 1 mg/kg
Give just the number in µM·h; leave the unit off.

• Cc1c[nH]c2ncnc(-c3ccc(NC(=O)N(CCO)c4ccccc4Cl)cc3)c12 [Compound 18f] = 5.1
• Cc1[nH]c2ncnc(-c3ccc(NC(=O)N(CCO)c4ccc(Cl)cc4)c(F)c3)c2c1C [Compound 18s] = 14.5
• Cc1c[nH]c2ncnc(-c3ccc(NC(=O)Nc4cccc(C(=O)NC(C)C)c4)c(F)c3)c12 = 5.5
• COc1ccc(N(CCO)C(=O)Nc2ccc(-c3ncnc4[nH]cc(C)c34)cc2)cc1 [Compound 18n] = 19.4
• COc1ccc(N(CCN)C(=O)Nc2ccc(-c3ncnc4[nH]cc(C)c34)cc2)cc1 [Compound 18o] = 1.1
• Cc1[nH]c2ncnc(-c3ccc(NC(=O)N(CCN(C)C)c4ccc(Cl)cc4)c(F)c3)c2c1C [Compound 18w] = 3.0
• COCCN(C(=O)Nc1ccc(-c2ncnc3[nH]c(C)c(C)c23)cc1F)c1ccc(Cl)cc1 [Compound 18x] = 5.1

Field: next compound
Exercise: Can you share its AUC (iv)? I mean this compound: Cc1c[nH]c2ncnc(-c3ccc(NC(=O)N(CCN)c4ccc(Cl)cc4)cc3)c12 [Compound 18p]
Key: 0.7

---

measurement_notes: Plasma pharmacokinetics studies on rats
recorded_conditions: rats; iv dosing 1 mg/kg
quantity_measured: Yd (iv)

* Cc1c[nH]c2ncnc(-c3ccc(NC(=O)Nc4ccccc4)cc3)c12 [Compound 10a] | 0.5 L/kg
* Cc1c[nH]c2ncnc(-c3ccc(NC(=O)N(CCO)c4ccccc4)cc3)c12 [Compound 18b] | 0.4 L/kg

Exercise: Yd (iv) for Cc1c[nH]c2ncnc(-c3ccc(NC(=O)Nc4cccc(C(=O)NC(C)C)c4)cc3)c12 ?
Key: 0.3 L/kg

---

target_system: UniProtKB P11712
Sequence (P11712 whole entry): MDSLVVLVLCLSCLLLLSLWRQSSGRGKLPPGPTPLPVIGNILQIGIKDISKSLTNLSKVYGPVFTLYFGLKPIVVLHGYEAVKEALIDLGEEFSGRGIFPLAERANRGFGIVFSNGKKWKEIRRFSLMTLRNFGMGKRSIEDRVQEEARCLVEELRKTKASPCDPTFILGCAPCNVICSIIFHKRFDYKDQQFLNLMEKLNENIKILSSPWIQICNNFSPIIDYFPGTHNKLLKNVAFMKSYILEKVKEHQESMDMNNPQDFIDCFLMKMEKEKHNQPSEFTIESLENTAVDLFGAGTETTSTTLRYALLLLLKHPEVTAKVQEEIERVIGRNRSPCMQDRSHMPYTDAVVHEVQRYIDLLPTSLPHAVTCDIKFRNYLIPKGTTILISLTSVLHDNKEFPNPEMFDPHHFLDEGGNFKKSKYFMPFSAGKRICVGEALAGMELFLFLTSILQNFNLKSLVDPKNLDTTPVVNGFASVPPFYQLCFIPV
measurement_notes: P450 inhibition at 10 μM
Assay type: in vitro ADME
Some compounds, each annotated with its measured P450 % inh. at 10 μM 2C9.
Field: numeric (%). Do not append units.

Here is how some compounds turned out for P450 % inh. at 10 μM 2C9.
- Cc1[nH]c2ncnc(-c3ccc(NC(=O)N(CCN(C)C)c4ccc(Cl)cc4)c(F)c3)c2c1C [Compound 18w]: −23
- Cc1c[nH]c2ncnc(-c3ccc(NC(=O)N(CCO)c4cccc(Cl)c4)cc3)c12 [Compound 18g]: 31
- Cc1[nH]c2ncnc(-c3ccc(NC(=O)N(CCO)c4ccc(Cl)cc4)c(F)c3)c2c1C [Compound 18s]: 13

Shifting focus to the compound that follows.
Exercise: Name the reported P450 % inh. at 10 μM 2C9 value associated with the compound Cc1c[nH]c2ncnc(-c3ccc(NC(=O)Nc4cccc(C(=O)NC(C)C)c4)c(F)c3)c12
Key: 35

---

target_system: UniProtKB P53667
Sequence (P53667 285-638): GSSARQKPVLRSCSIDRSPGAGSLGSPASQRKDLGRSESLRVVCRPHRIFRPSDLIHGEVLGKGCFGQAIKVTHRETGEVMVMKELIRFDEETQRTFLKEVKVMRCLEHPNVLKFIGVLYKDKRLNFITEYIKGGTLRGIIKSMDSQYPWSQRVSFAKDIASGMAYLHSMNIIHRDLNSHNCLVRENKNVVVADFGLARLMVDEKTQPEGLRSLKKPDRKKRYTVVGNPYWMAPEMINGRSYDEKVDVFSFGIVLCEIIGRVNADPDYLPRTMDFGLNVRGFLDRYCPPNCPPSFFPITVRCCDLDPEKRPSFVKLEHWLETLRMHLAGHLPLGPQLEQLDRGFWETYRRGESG
measurement_notes: Limk1 biochemical assay (Reaction Biology, 10-dose IC50)
Parameters: His; purchased Reaction Biology Corporation; host or cells: insect cells
recorded_conditions: Table 1; means of ≥2 experiments; read-out: IC50 (nM) Limk1
quantity_measured: IC50 (nM)
Write down the numeric answer in nM and omit the unit.

- Cc1[nH]c2ncnc(-c3ccc(NC(=O)Nc4cccc(C(=O)NC(C)C)c4)cc3)c2c1C: 80

Now let's try a different one.
Exercise: Looking for the measured IC50 of Cc1cc2c(-c3ccc(NC(=O)Nc4cccc(C(=O)NC(C)C)c4)cc3)ncnc2[nH]1 , can you help?
Key: 80

---

target_system: ROCK-II (Homo sapiens)
measurement_notes: ROCK-II biochemical counter-screen
recorded_conditions: Table 3; means of ≥2 experiments; read-out: IC50 (nM) ROCK-II
quantity_measured: IC50 (nM)
A number alone suffices; assume nM.

Recorded results for 3 molecules are shown here.
• COc1ccccc1NC(=O)Nc1ccc(-c2ncnc3[nH]cc(C)c23)cc1 [Compound 10c] = 6650
• Cc1c[nH]c2ncnc(-c3ccc(NC(=O)Nc4nccs4)cc3)c12 [Compound 10f] = 2290
• Cc1c[nH]c2ncnc(-c3ccc(NC(=O)Nc4cccc(F)c4)cc3)c12 [Compound 10b] = 5420

Please turn your attention to the following entry.
Exercise: Request body: readout IC50, system ROCK-II (Homo sapiens), query COc1cccc(NC(=O)Nc2ccc(-c3ncnc4[nH]cc(C)c34)cc2)c1 [Compound 10d] . Return the value.
Key: 2570

---

We begin with a simple list: items and their reported IC50.
target_system: ROCK-II (Homo sapiens, UniProt O75116)
Sequence (O75116 whole entry, species assumed): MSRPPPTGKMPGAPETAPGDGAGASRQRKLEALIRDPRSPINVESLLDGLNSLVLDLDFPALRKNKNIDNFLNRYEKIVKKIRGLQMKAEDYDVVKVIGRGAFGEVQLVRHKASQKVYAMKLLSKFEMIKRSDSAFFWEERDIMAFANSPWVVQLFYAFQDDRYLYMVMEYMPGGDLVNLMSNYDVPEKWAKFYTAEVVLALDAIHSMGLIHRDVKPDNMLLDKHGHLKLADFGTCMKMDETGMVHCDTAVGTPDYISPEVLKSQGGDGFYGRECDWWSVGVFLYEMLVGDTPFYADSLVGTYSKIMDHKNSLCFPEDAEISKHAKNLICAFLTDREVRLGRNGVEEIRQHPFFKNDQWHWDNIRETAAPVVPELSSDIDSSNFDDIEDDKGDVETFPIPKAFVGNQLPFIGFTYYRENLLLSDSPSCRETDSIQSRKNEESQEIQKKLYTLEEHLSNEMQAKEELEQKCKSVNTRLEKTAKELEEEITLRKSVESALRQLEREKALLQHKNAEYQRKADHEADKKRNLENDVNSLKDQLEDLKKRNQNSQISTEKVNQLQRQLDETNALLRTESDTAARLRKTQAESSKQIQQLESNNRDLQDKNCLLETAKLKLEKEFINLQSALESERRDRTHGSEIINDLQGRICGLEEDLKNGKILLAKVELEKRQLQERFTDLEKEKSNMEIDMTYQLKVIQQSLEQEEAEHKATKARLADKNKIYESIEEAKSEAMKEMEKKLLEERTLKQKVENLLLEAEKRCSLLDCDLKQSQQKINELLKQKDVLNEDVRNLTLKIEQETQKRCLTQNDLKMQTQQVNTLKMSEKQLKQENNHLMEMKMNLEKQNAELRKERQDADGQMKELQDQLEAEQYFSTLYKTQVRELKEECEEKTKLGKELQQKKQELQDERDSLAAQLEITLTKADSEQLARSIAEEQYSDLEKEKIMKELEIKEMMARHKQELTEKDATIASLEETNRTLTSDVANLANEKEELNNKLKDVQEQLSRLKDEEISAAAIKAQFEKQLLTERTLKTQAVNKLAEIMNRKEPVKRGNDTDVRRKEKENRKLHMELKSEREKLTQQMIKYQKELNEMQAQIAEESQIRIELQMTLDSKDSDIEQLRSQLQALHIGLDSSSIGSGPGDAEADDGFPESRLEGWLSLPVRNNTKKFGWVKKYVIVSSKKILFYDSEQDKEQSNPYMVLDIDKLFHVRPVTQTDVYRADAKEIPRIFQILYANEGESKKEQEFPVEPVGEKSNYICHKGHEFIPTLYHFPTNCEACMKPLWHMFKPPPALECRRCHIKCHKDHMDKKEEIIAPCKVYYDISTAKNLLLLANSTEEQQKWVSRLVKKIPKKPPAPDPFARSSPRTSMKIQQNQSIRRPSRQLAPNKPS
measurement_notes: ROCK-II biochemical counter-screen
recorded_conditions: Table 5; means of ≥2 experiments; read-out: Biochemical IC50 (nM) ROCK-II

- COCCN(C(=O)Nc1ccc(-c2ncnc3[nH]c(C)c(C)c23)cc1F)c1ccc(Cl)cc1 [Compound 18x]: > 20000 nM

Exercise: For the molecule shown here, Cc1[nH]c2ncnc(-c3ccc(NC(=O)N(CCN(C)C)c4ccc(Cl)cc4)c(F)c3)c2c1C [Compound 18w] , give the reported IC50.
Key: > 20000 nM

---

Some compounds, each annotated with its measured P450 % inh. at 10 μM 3A4.
target_system: P450 3A4 (Homo sapiens, UniProt P08684)
Sequence (P08684 whole entry): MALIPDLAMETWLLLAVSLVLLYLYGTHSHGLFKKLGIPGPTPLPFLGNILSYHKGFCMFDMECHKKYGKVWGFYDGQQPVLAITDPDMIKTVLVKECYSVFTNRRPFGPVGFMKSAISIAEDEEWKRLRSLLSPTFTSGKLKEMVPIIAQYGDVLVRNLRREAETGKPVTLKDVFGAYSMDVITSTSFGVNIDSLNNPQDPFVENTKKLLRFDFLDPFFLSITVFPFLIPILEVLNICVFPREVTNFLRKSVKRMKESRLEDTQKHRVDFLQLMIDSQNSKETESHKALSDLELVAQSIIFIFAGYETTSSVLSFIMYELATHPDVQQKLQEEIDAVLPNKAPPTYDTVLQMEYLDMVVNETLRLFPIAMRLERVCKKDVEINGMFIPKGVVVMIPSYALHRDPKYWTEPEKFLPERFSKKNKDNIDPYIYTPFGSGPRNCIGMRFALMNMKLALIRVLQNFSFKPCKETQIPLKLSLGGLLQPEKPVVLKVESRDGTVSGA
measurement_notes: P450 inhibition at 10 μM
Type: in vitro ADME
Kindly answer with a numeric value in %, unit omitted.

Here are 3 compounds together with their reported answers.
• Cc1c[nH]c2ncnc(-c3ccc(NC(=O)N(CCO)c4cccc(Cl)c4)cc3)c12 [Compound 18g] = 42
• Cc1[nH]c2ncnc(-c3ccc(NC(=O)Nc4cccc(C(=O)NC(C)C)c4)cc3)c2c1C = 42
• COc1cccc(N(CCO)C(=O)Nc2ccc(-c3ncnc4[nH]cc(C)c34)cc2)c1 [Compound 18m] = 44

Now for another entry.
Exercise: Find P450 % inh. at 10 μM 3A4 (P450 3A4 (Homo sapiens, UniProt P08684)) for the entry Cc1c[nH]c2ncnc(-c3ccc(NC(=O)N(CCO)c4ccc(Cl)cc4)cc3)c12 [Compound 18h]
Key: 27

---

target_system: P450 2D6 (Homo sapiens, UniProt P10635)
Sequence (P10635 whole entry): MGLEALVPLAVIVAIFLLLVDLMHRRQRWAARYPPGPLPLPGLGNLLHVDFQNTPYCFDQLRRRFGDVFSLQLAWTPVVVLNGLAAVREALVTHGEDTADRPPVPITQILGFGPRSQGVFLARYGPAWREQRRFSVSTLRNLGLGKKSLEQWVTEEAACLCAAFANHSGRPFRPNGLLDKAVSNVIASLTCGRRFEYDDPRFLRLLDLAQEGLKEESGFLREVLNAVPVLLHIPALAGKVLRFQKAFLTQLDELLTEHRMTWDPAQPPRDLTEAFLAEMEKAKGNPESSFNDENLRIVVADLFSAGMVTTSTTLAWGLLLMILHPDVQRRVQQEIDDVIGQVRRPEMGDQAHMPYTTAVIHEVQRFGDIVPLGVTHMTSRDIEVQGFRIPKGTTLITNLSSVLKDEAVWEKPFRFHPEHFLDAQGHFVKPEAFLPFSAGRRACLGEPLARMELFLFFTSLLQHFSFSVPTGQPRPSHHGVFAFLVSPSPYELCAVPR
measurement_notes: P450 inhibition at 10 μM
Format: in vitro ADME
Record condition met whenever P450 % inh. at 10 μM 2D6 is at 10% or higher; record condition not met when lower.

- Cc1c[nH]c2ncnc(-c3ccc(NC(=O)N(CCO)c4cccc(Cl)c4)cc3)c12 [Compound 18g]: condition not met
- Cc1[nH]c2ncnc(-c3ccc(NC(=O)N(CCN)c4ccc(Cl)cc4)c(F)c3)c2c1C [Compound 18t]: condition met

Here's the next entry for you.
Exercise: Hello, I need to know if Cc1ccc(N(CCO)C(=O)Nc2ccc(-c3ncnc4[nH]cc(C)c34)cc2)cc1 [Compound 18k] has measured P450 % inh. at 10 μM 2D6 not below 10%. Thanks!
Key: condition not met

---

target_system: ROCK-II (Homo sapiens, UniProt O75116)
measurement_notes: ROCK-II biochemical counter-screen
recorded_conditions: Table 4; means of ≥2 experiments; read-out: IC50 (nM) ROCK-II
quantity_measured: IC50 (nM)
Write the value in nM as a bare number.

* COc1cccc(N(CCO)C(=O)Nc2ccc(-c3ncnc4[nH]cc(C)c34)cc2)c1 [Compound 18m] | 3220
* Cc1c[nH]c2ncnc(-c3ccc(NC(=O)N(CCO)c4ccccc4Cl)cc3)c12 [Compound 18f] | 3340
* Cc1c[nH]c2ncnc(-c3ccc(NC(=O)N(CCO)c4ccc(Cl)cc4)cc3)c12 [Compound 18h] | 4360
* Cc1c[nH]c2ncnc(-c3ccc(NC(=O)N(CCO)c4cccc(F)c4)cc3)c12 [Compound 18d] | 1900
* Cc1ccc(N(CCO)C(=O)Nc2ccc(-c3ncnc4[nH]cc(C)c34)cc2)cc1 [Compound 18k] | 5930

Exercise: Recorded IC50 for Cc1c[nH]c2ncnc(-c3ccc(NC(=O)N(CCO)c4cccc(Cl)c4)cc3)c12 [Compound 18g] , please?
Key: 11300

Exercise: IC50 lookup needed for Cc1c[nH]c2ncnc(-c3ccc(NC(=O)N(CCO)c4ccc(F)cc4)cc3)c12 [Compound 18e] , thanks.
Key: 3240

Reference source for all entries: patent US20190292189A1
